The origin of these recorded values is the supplement of paper PMC9112550.

Tested on: Escherichia coli TOP10
assay: shrunken log2 fold change of peptide-encoding DNA abundance (4.5 h post-induction vs induction); higher = less antimicrobial activity (less host growth inhibition)
condition-set: time post-induction: 4.5 h; library: site-saturation at positions 5, 18, 19, 20
parameter-measured: shrunken log2 fold change

Observe how each entry below is paired with its result.
>>> value_reported("RRIRFRPPRLPRPRPRPYQQPRP")
0.00163
>>> value_reported("RRIRRRPPRLPRPRPRPIVIPRP")
-0.125

For the 3 sequences below, give their shrunken log2 fold change values.
1. RRIRNRPPRLPRPRPRPAPPPRP
2. RRIRRRPPRLPRPRPRPENDPRP
3. RRIRARPPRLPRPRPRPMQIPRP

1. 0.584
2. 0.785
3. 0.446

For the 4 sequences below, give their shrunken log2 fold change values.
1. RRIRGRPPRLPRPRPRPRIDPRP
2. RRIRPRPPRLPRPRPRPMAQPRP
3. RRIRPRPPRLPRPRPRPESIPRP
4. RRIRGRPPRLPRPRPRPKIYPRP

0.731
0.177
-0.0804
0.000217

For the 5 sequences below, give their shrunken log2 fold change values.
1. RRIRPRPPRLPRPRPRPEGWPRP
2. RRIRTRPPRLPRPRPRPVCCPRP
3. RRIRARPPRLPRPRPRPILVPRP
4. RRIRLRPPRLPRPRPRPFLRPRP
5. RRIRQRPPRLPRPRPRPPDDPRP

[1.82, -0.254, -0.122, -0.429, -0.308]

----------
For each of the sequences below, state its shrunken log2 fold change.
Test system: Escherichia coli TOP10
assay: shrunken log2 fold change of peptide-encoding DNA abundance (4.5 h post-induction vs induction); higher = less antimicrobial activity (less host growth inhibition)
condition-set: time post-induction: 4.5 h; library: site-saturation at positions 5, 18, 19, 20
Answers are plain numbers.

Observe how each entry below is paired with its result.
>>> value_reported("RRIRHRPPRLPRPRPRPHYNPRP")
-1.11
>>> value_reported("RRIRQRPPRLPRPRPRPSLIPRP")
-0.275
>>> value_reported("RRIRWRPPRLPRPRPRPSGPPRP")
0.114
>>> value_reported("RRIRLRPPRLPRPRPRPMQFPRP")
0.179
>>> value_reported("RRIRYRPPRLPRPRPRPQAFPRP")
-0.142
>>> value_reported("RRIRYRPPRLPRPRPRPEQQPRP")
-0.0122
>>> value_reported("RRIRVRPPRLPRPRPRPEWRPRP")
0.212
>>> value_reported("RRIRHRPPRLPRPRPRPLQPPRP")
0.157
>>> value_reported("RRIRHRPPRLPRPRPRPASAPRP")
0.0183
>>> value_reported("RRIRDRPPRLPRPRPRPYRHPRP")
-0.0137

For the 5 sequences below, give their shrunken log2 fold change values.
1. RRIRWRPPRLPRPRPRPWSWPRP
2. RRIRWRPPRLPRPRPRPGYAPRP
3. RRIRIRPPRLPRPRPRPVYCPRP
4. RRIRERPPRLPRPRPRPDFQPRP
5. RRIRGRPPRLPRPRPRPFECPRP

1: 1.16; 2: 0.38; 3: -0.127; 4: -0.37; 5: 0.0132

----------
System: Escherichia coli TOP10
assay: shrunken log2 fold change of peptide-encoding DNA abundance (4.5 h post-induction vs induction); higher = less antimicrobial activity (less host growth inhibition)
condition-set: time post-induction: 4.5 h; library: site-saturation at positions 5, 18, 19, 20
Criterion: shrunken log2 fold change meeting or surpassing -0.002. Met: True. Not met: False.

Worked cases, answers included:
>>> assigned_class("RRIRFRPPRLPRPRPRPFRKPRP")
"False"
>>> assigned_class("RRIRTRPPRLPRPRPRPFVTPRP")
"False"
>>> assigned_class("RRIRYRPPRLPRPRPRPGRDPRP")
"False"
>>> assigned_class("RRIRWRPPRLPRPRPRPCRKPRP")
"False"

Can RRIRHRPPRLPRPRPRPHYVPRP be said to have shrunken log2 fold change at or above -0.002?
False

Can you handle RRIRRRPPRLPRPRPRPEGAPRP next?
True

Can you handle RRIRKRPPRLPRPRPRPYGQPRP next?
False

Can you handle RRIRRRPPRLPRPRPRPWFYPRP next?
False

----------
Test system: Escherichia coli TOP10
assay: shrunken log2 fold change of peptide-encoding DNA abundance (4.5 h post-induction vs induction); higher = less antimicrobial activity (less host growth inhibition)
condition-set: time post-induction: 4.5 h; library: site-saturation at positions 5, 18, 19, 20
Criterion: shrunken log2 fold change meeting or surpassing 0.09. Met: rule met. Not met: rule not met.

Worked cases, answers included:
>>> assigned_class("RRIRDRPPRLPRPRPRPTLPPRP")
"rule not met"
>>> assigned_class("RRIRPRPPRLPRPRPRPEHAPRP")
"rule met"
>>> assigned_class("RRIRSRPPRLPRPRPRPVRNPRP")
"rule not met"

Can RRIRTRPPRLPRPRPRPTAIPRP be said to have shrunken log2 fold change at or above 0.09?
rule not met

Can you handle RRIRYRPPRLPRPRPRPWVAPRP next?
rule not met

Can you handle RRIRGRPPRLPRPRPRPQPQPRP next?
rule met

Can you handle RRIRWRPPRLPRPRPRPNPRPRP next?
rule met

----------
Tested on: Escherichia coli TOP10
assay: shrunken log2 fold change of peptide-encoding DNA abundance (4.5 h post-induction vs induction); higher = less antimicrobial activity (less host growth inhibition)
condition-set: time post-induction: 4.5 h; library: site-saturation at positions 5, 18, 19, 20
Label scheme, based on shrunken log2 fold change: lower range (below -0.1), middle range (-0.1 to below 0.1), upper range (0.1 or more)

Worked cases, answers included:
>>> assigned_class("RRIRHRPPRLPRPRPRPKLYPRP")
"middle range"
>>> assigned_class("RRIRPRPPRLPRPRPRPYHAPRP")
"lower range"
>>> assigned_class("RRIRYRPPRLPRPRPRPGVPPRP")
"upper range"
>>> assigned_class("RRIRPRPPRLPRPRPRPEKMPRP")
"upper range"
>>> assigned_class("RRIRHRPPRLPRPRPRPAWQPRP")
"middle range"
>>> assigned_class("RRIRQRPPRLPRPRPRPWQGPRP")
"lower range"
>>> assigned_class("RRIRQRPPRLPRPRPRPPFDPRP")
"upper range"
>>> assigned_class("RRIRTRPPRLPRPRPRPWQNPRP")
"middle range"
>>> assigned_class("RRIRTRPPRLPRPRPRPYWYPRP")
"lower range"
>>> assigned_class("RRIRARPPRLPRPRPRPFCGPRP")
"middle range"

Class? Entry: RRIRVRPPRLPRPRPRPDQRPRP
upper range

Can you handle RRIRCRPPRLPRPRPRPDQYPRP next?
lower range

Can you handle RRIRVRPPRLPRPRPRPMNYPRP next?
lower range

Can you handle RRIRGRPPRLPRPRPRPADDPRP next?
upper range

Can you handle RRIRARPPRLPRPRPRPNSCPRP next?
lower range

----------
Tested on: Escherichia coli TOP10
assay: shrunken log2 fold change of peptide-encoding DNA abundance (4.5 h post-induction vs induction); higher = less antimicrobial activity (less host growth inhibition)
condition-set: time post-induction: 4.5 h; library: site-saturation at positions 5, 18, 19, 20
parameter-measured: shrunken log2 fold change
Give bare numbers.

>>> value_reported("RRIRQRPPRLPRPRPRPLDMPRP")
0.0532
>>> value_reported("RRIRPRPPRLPRPRPRPQVHPRP")
-0.0018

For the 4 sequences below, give their shrunken log2 fold change values.
1. RRIRKRPPRLPRPRPRPCNTPRP
2. RRIRFRPPRLPRPRPRPMKTPRP
3. RRIRMRPPRLPRPRPRPDWKPRP
4. RRIRVRPPRLPRPRPRPLLPPRP

[-0.113, -0.0807, 0.0125, 0.328]

----------
For each of the sequences below, state its shrunken log2 fold change.
Test system: Escherichia coli TOP10;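 also: peptides expressed intracellularly from a pBAD plasmid library in pooled LB shake-flask culture, induced with 0.3% L-arabinose, DNA abundance read by NGS, three biological replicates, DESeq2 with apeglm shrinkage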
assay: shrunken log2 fold change of peptide-encoding DNA abundance (4.5 h post-induction vs induction); higher = less antimicrobial activity (less host growth inhibition)
condition-set: time post-induction: 4.5 h; library: site-saturation at positions 5, 18, 19, 20
One number for each entry.

Observe how each entry below is paired with its result.
>>> value_reported("RRIRRRPPRLPRPRPRPVGHPRP")
0.0496
>>> value_reported("RRIRQRPPRLPRPRPRPSGWPRP")
-0.112
>>> value_reported("RRIRPRPPRLPRPRPRPLARPRP")
0.388
>>> value_reported("RRIRVRPPRLPRPRPRPSDDPRP")
-0.417
>>> value_reported("RRIRHRPPRLPRPRPRPSPRPRP")
0.0803

For the 3 sequences below, give their shrunken log2 fold change values.
1. RRIRNRPPRLPRPRPRPANTPRP
2. RRIRGRPPRLPRPRPRPQLIPRP
3. RRIRGRPPRLPRPRPRPCHTPRP

-0.242
0.139
-0.0963
